Where do these numbers come from? They come from paper PMC9080015.

Molecular target: recombinant human CYP1B1 (Homo sapiens)
Sequence (Q16678 1-543): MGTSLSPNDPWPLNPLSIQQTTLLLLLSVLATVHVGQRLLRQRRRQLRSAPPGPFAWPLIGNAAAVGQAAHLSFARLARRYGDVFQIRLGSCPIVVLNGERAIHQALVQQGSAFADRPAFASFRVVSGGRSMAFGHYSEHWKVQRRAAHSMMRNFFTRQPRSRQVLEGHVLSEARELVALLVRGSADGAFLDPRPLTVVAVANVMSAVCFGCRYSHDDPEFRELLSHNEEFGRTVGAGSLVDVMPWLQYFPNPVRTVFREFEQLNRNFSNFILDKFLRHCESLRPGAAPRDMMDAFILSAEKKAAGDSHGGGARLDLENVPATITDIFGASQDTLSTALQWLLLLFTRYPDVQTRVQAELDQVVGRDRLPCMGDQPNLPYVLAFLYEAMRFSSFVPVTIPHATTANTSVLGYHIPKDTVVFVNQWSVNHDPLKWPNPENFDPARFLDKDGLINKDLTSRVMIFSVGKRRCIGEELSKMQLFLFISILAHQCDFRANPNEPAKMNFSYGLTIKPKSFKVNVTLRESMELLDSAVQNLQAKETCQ
Experiment: EROD assay, recombinant human CYP1B1 inhibition
Assay type: biochemical
Settings: read-out: IC50 values (nM) 1B1; EROD assay, 20 fmol CYP1B1, 150 nM 7-ER, 37 °C, 35 min
endpoint_name: IC50

Given item COc1cc(-c2ccccc2)nc2c1ccc1ccccc12 [Compound 4b, 4-Methoxy-2-phenylbenzo[h]quinoline] , the value recorded as its IC50 is > 5000 nM
